The values you see were collected from patent US11492325B2.

Tested on: cardiomyocytes derived from hiPSCs from a LQTS3 patient
details: LQT3 cardiomyocytes
measure: LQT-Cessation Dose

• Cc1ccc(OCC(N)c2ccccc2)cc1C.Cl (centres unmarked) = 66 µM
• CCCCNC(C)COc1c(C)cccc1C (centres unmarked) = 66 µM
• NC(COc1cc(C(F)(F)F)ccn1)c1ccccc1 (centres unmarked) = None
• Cc1cccc(C)c1OCC(C)NCCc1ccccc1 (centres unmarked) = 7.4 µM
• CC(COC1CCCCC1)=NOCc1ccccc1 = None

====

systemTested: hERG potassium channel (IKr) (Homo sapiens)
Sequence (Q12809 whole entry): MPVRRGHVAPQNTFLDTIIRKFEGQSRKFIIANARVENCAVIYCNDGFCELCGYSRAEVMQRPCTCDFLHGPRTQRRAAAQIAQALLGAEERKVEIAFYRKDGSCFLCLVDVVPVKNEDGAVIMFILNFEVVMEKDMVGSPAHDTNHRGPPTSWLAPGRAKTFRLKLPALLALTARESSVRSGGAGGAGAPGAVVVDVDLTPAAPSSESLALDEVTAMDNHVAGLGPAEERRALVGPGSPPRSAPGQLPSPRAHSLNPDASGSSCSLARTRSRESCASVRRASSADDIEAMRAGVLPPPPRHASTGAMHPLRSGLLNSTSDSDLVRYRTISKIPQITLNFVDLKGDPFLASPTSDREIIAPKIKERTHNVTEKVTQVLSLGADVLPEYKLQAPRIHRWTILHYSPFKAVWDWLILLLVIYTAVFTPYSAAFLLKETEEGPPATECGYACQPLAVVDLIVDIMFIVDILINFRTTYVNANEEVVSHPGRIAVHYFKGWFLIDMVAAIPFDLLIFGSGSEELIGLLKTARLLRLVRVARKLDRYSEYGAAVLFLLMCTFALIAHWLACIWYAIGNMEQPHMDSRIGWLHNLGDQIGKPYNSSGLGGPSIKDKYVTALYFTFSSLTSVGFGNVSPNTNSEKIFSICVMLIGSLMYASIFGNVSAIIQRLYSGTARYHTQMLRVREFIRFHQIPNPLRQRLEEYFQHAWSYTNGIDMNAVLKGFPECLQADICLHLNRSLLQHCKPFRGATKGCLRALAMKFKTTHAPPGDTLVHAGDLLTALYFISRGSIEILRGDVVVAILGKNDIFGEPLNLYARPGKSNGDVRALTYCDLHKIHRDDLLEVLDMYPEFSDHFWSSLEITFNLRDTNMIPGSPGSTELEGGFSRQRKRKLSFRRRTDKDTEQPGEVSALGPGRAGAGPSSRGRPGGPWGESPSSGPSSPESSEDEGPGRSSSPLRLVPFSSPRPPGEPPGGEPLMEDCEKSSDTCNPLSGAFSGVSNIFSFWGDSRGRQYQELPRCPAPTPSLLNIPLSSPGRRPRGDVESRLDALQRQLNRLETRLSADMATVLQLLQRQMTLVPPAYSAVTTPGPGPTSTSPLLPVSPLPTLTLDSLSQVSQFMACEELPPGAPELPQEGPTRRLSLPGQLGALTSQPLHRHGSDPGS
methodNotes: Automated patch clamp, hERG (IKr) expressed in CHO cells
details: ratio peak Na IC50/hERG IC50
measure: DNaP/Kr

* Cc1cc(C)cc(OCC(N)C2CCCCC2)c1.Cl (stereo not drawn) | 5.0
* Cc1cccc(C)c1OCC(N)C1CC1 (stereo not drawn) | 4.3
* CNC(C)COc1c(C)cccc1C (stereo not drawn) | 2.8

====

Test system: cardiomyocytes derived from hiPSCs from a LQTS3 patient
details: LQT3 cardiomyocytes
Measured LQT-Cessation Dose values are reported for all entries that follow.
measure: LQT-Cessation Dose (µM)

* CNC(COc1cccc(C)c1C)c1ccccc1 (stereo not shown) [Compound 34] | 66
* CCc1ccccc1OCC(N)c1ccccc1 (stereo not shown) [Compound 24] | 22
* Cc1cccc(C)c1OCC(C)NC(=O)c1ccccc1 (stereo not shown) [Compound 54] | 133
* Cc1cccnc1OCC(C)N (stereo not shown) [Compound 100] | 22
* Cc1cc(C)cc(OCC(NCCO)c2ccccc2)c1 (stereo not shown) [Compound 92] | 66
* Cc1cccc(C)c1OCC(N)C(C)(C)C (stereo not shown) [Compound 12] | 22
* Cc1cc(C)cc(OC[C@@H](N)C2CC2)c1.Cl [Compound 62] | 200
* Cc1cc(C)cc(OC[C@H](N)C2CC2)c1.Cl [Compound 63] | 200
* Cc1cccc(OCC(N)c2ccccc2)c1C (stereo not shown) [Compound 35] | 66
* CC(N)COc1cccc(C(F)(F)F)c1.Cl (stereo not shown) [Compound 85] | 200
* Cc1cc(C)cc(OCC(NCCN2CCOCC2)c2ccccc2)c1 (stereo not shown) [Compound 98] | 66

====

systemTested: hERG potassium channel (IKr) (Homo sapiens)
methodNotes: Automated patch clamp, hERG (IKr) expressed in CHO cells
details: ratio, Example 2
// classify: if (DKr/NaL < 7) Y else N

• Cc1cc(C)cc(OCC(N)C2CCCCC2)c1.Cl (stereo not shown) = Y
• COCCNC(COc1cc(C(F)(F)F)cc(C(F)(F)F)c1)c1ccccc1.Cl (stereo not shown) = N
• Cc1cc(C)cc(OCC(N)C2CC2)c1.Cl (stereo not shown) = Y
• Cc1ccc(OCC(N)c2ccccc2)c(C)c1.Cl (stereo not shown) = Y
• Cc1cc(C)cc(OCC(N)c2ccccc2)c1.Cl (racemic) = N
• COCCNC(COc1cccc(C)c1C)c1ccccc1 (racemic) = N
• Cc1cccc(OCC(N)c2ccccc2)c1C (stereo not shown) = N
• COCCNC(COc1ccccc1C)c1ccccc1.Cl (stereo not shown) = Y

====

Test system: normal human induced pluripotent stem cell (hiPSC) cardiomyocyte
details: normal hiPSC cardiomyocytes
measure: WT-EAD Dose (µM)

- CCCCNC(C)COc1c(C)cccc1C (stereo not drawn): 66
- COCCNC(C)COc1c(C)cccc1C (stereo not drawn): 66
- Cc1ccccc1OCC(C)N (stereo not drawn): 200
- C[C@@H](N)COc1ccccc1.Cl: 200
- Cc1cccc(C)c1OCC(N)C(C)(C)C (stereo not drawn): 7.4
- Cc1cc(C)cc(OC[C@@H](N)C2CC2)c1.Cl: 66

====

Measured DNaP/Kr values are reported for all entries that follow.
systemTested: hERG potassium channel (IKr) (Homo sapiens)
methodNotes: Automated patch clamp, hERG (IKr) expressed in CHO cells
details: ratio, Example 2
measure: DNaP/Kr

- Cc1cccnc1OCC(O)c1ccccc1 (stereo not drawn) [Compound 21]: 1.3
- Cc1cccc(OCC(N)c2ccccc2)c1C (stereo not drawn) [Compound 35]: 1.2
- Cc1cc(C)cc(OCC(N)C2CC2)c1.Cl (stereo not drawn) [Compound 91]: 1.7
- Cc1cc(C)cc(OCC(N)c2ccccc2)c1.Cl (racemic) [Compound 70]: 3.0
- Cl.NC(COc1cc(C(F)(F)F)cc(C(F)(F)F)c1)c1ccccc1 (stereo not drawn) [Compound 78]: 2.77
- Cc1cc(C)cc(OCC(N)C2CCCCC2)c1.Cl (stereo not drawn) [Compound 89]: 5.0

====

systemTested: CYP3A4 (Homo sapiens, UniProt P08684)
Sequence (P08684 whole entry): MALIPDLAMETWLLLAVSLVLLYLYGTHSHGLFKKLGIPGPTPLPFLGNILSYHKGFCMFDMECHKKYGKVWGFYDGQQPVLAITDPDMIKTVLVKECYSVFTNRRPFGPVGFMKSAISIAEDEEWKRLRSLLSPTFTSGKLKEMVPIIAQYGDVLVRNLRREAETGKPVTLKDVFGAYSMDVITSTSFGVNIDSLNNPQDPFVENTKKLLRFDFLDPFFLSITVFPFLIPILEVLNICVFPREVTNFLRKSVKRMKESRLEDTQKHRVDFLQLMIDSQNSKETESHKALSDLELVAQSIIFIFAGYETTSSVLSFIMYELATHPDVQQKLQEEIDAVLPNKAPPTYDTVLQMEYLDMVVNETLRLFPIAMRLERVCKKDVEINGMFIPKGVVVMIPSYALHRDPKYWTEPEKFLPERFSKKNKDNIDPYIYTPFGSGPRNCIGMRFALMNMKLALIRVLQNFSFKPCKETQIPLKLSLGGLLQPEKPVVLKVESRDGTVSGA
methodNotes: Metabolism with highly purified CYP3A4 (HPLC)
details: 3 pmol enzyme/incubation; 30 mins, 37° C.; nmol metabolism/incubation
Measured Human CYP3A4 (nmol/incub) values are reported for all entries that follow.
measure: Human CYP3A4 (nmol/incub)

• Cl.[2H]C(N)(COc1ccccc1C(F)(F)F)c1ccccc1 (centres unmarked) [Compound 104d] = 0.3
• Cc1cccc(C)c1OCC(C)N (racemic) [Mexiletine, reference compound] = 3.0
• Cl.[2H]C(N)(COc1cc(C(F)(F)F)cc(C(F)(F)F)c1)c1ccccc1 (centres unmarked) [Compound 104a] = 1.1
• Cl.[2H]C(N)(COc1cc(C)cc(C)c1)c1ccccc1 (centres unmarked) [Compound 104b] = 0.3
• Cl.[2H]C(N)(COc1ccccc1C)c1ccccc1 (centres unmarked) [Compound 104c] = 1.0

====

System: cardiomyocytes derived from hiPSCs from a LQTS3 patient
details: deuterated vs non-deuterated
measure: LQT-Cess. Dose (µM)

• Cl.NC(COc1cc(C(F)(F)F)cc(C(F)(F)F)c1)c1ccccc1 (centres unmarked) [Compound 78] = 66
• Cc1cc(C)cc(OCC(N)c2ccccc2)c1.Cl (racemic) [Compound 70] = 66
• Cl.[2H]C(N)(COc1cc(C(F)(F)F)cc(C(F)(F)F)c1)c1ccccc1 (centres unmarked) [Compound 104a] = 133
• Cl.[2H]C(N)(COc1ccccc1C(F)(F)F)c1ccccc1 (centres unmarked) [Compound 104d] = 66
• Cl.[2H]C(N)(COc1cc(C)cc(C)c1)c1ccccc1 (centres unmarked) [Compound 104b] = 22

====

System: normal human induced pluripotent stem cell (hiPSC) cardiomyocyte
details: normal hiPSC cardiomyocytes
measure: Cessation of Beating

• COCCNC(C)COc1c(C)cccc1C (stereo not shown) = None
• COc1ccccc1OCC(C)N (stereo not shown) = None
• Cc1cccnc1OCC(C)N (stereo not shown) = None
• NC(COc1cc(C(F)(F)F)ccn1)c1ccccc1 (stereo not shown) = None
• Cc1ccc(OCC(C)N)c(C)c1.Cl (stereo not shown) = None
• Cc1cccc(OCC(O)c2ccccc2)c1C (stereo not shown) = 133 µM
• NC(COc1ccccn1)c1ccccc1 (stereo not shown) = None
• Cc1cccc(C)c1OCC(C)Nc1ccccc1 (stereo not shown) = None
• CC(=O)NC(COc1c(C)cccc1C)c1ccccc1 (stereo not shown) = 66 µM
• Cc1cccnc1OCC(N)c1ccccc1 (stereo not shown) = None

====

systemTested: Nav1.5 sodium channel, peak current (INaP) (Homo sapiens, UniProt Q14524, form not given)
methodNotes: in vitro
details: Peak Na+ (INaP) IC50
pIC50: −log10 of the molar value.
Measured pIC50 values are reported for all entries that follow.
measure: pIC50

- COCCNC(COc1cc(C)cc(C)c1)c1ccccc1.Cl (stereo not shown): 4.42
- Cc1ccncc1OCC(N)c1ccccc1.Cl (stereo not shown): 4.04
- Cc1cc(C)cc(OCC(N)C2CCCCC2)c1.Cl (stereo not shown): 4.61
- Cc1cccnc1OCC(O)c1ccccc1 (stereo not shown): 3.89

====

systemTested: UniProt:Q12809
methodNotes: Automated patch clamp, hERG (IKr) expressed in CHO cells
details: ratio hERG IC50/late Na IC50
// classify: if (DKr/NaL < 3) Y else N

- Cc1cc(C)cc(OCC(N)C2CCCCC2)c1.Cl (stereo not shown): N
- NC(COc1ccccc1C(F)(F)F)c1ccccc1 (stereo not shown): N
- Cc1ccc(OCC(N)c2ccccc2)c(C)c1.Cl (stereo not shown): Y
- CNC(C)COc1c(C)cccc1C (stereo not shown): Y
- Cc1cc(C)cc(OCC(C)N)c1 (stereo not shown): Y
- Cc1ccccc1OCC(C)N (stereo not shown): Y
- COCCNC(COc1cccc(C)c1C)c1ccccc1 (racemic): N
- Cc1cccnc1OCC(O)c1ccccc1 (stereo not shown): N
- Cc1cc(C)cc(OCC(N)c2ccccc2)c1.Cl (racemic): N
- Cc1cc(C)cc(OCC(N)C2CC2)c1.Cl (stereo not shown): N

====

Measured LQT-Cessation Dose values are reported for all entries that follow.
System: cardiomyocytes derived from hiPSCs from a LQTS3 patient
details: LQT3 cardiomyocytes
measure: LQT-Cessation Dose (µM)

- Cc1ccnc(OCC(N)c2ccccc2)c1 (centres unmarked) [Compound 95]: 22
- CCCNC(C)COc1c(C)cccc1C (centres unmarked) [Compound 38]: 200
- Cc1ccc(OCC(N)C2CC2)cc1C.Cl (centres unmarked) [Compound 77]: 200
